Assay: qHTS of pediatric cancer cell lines to identify multiple opportunities for drug repurposing: Primary screen for NB-EBc1 cells (AID 1347095); further: potency means the concentration at half of the fitted maximal effect
Details: NB-EBc1 neuroblastoma viability, CellTiter-Glo luminescence, 48 h; series mostly up to 46 µM
Records with an inconclusive call do not appear. Calls of active or inactive are those of the source. The call rests on the fitted dose curve; in most records, active means well fitted cell-killing curve with a large enough effect; inconclusive means small, poorly fitted or top-dose-only effect; inactive means no such curve, though single readings can be large or run the other way.
quantity.name: Potency

1) CCCCOc1c(C(=O)c2c(F)cc(C)cc2F)cnc2n[nH]cc12	2.35 µM (active)

*Q* Requested read-out: Potency. Entry: COc1ccc(-c2cc3c(C)nc(N)nc3n(C3CCC(OCCO)CC3)c2=O)cn1 (stereo not given)
*A* 0.059 µM (active)

*Q* Requested read-out: Potency. Entry: `CNc1nccc(-c2cccnc2Oc2cc(C(=O)Nc3cccc(C(F)(F)F)c3)ccc2C)n1`
*A* 3.32 µM (active)

*Q* Requested read-out: Potency. Entry: `Nc1nc(NCCNc2ncc(-n3ccnc3)c(-c3ccc(Cl)cc3Cl)n2)ccc1[N+](=O)[O-]`
*A* 13.2 µM (active)
